Reference source: PubChem BioAssay (NCI)

- System: K-562 leukemia
- ASSAY_PROCEDURE: NCI tumour cell line growth inhibition, 48 h
PARAMETER: TGI (µM)
Numbers only; they are read as µM.

Query: Provide one value: measured TGI of Cc1ccc(S(=O)(=O)NC2(C=O)CCC(C(C)(C)C)CC2)cc1 (stereo not given)
Reply: 70.8

Query: Provide one value: measured TGI of Cn1cc(C2=C(c3cn(CCCSC(=N)N)c4ccccc34)C(=O)NC2=O)c2ccccc21
Reply: 6.78

Query: Provide one value: measured TGI of CSc1nc(Cl)c2c(n1)Sc1ncnn1C2O (stereo not given)
Reply: 30.6

Query: Provide one value: measured TGI of COc1ccc(/C=C2\CN(Cc3cn(CCCNc4ccnc5cc(Cl)ccc45)nn3)C/C(=C\c3ccc(OC)cc3)C2=O)cc1
Reply: 11.7
